Experiment summary: Metabolic stability in cryopreserved beagle dog hepatocytes
Format: in vitro ADME
Particulars: beagle, dog, cryopreserved hepatocytes; test compound 1 μM, 3 million cells per ml, 90 min incubation; T1/2=Ln2/k
Assay metric: half-life at 1 μM (h)
Only the number, expressed in h, is required.

Request: // half-life at 1 μM lookup, key: CN1c2ccccc2C(NCCCCOCC(=O)O)c2ccc(Cl)cc2S1(=O)=O (stereo not shown) [Example 2]
Response: 34.4

----------
Experiment summary: Metabolic stability in cryopreserved beagle dog hepatocytes
Format: in vitro ADME
Particulars: beagle, dog, cryopreserved hepatocytes; test compound 1 μM, 3 million cells per ml, 90 min incubation; read-out: Clint (intrinsic clearance)
Assay metric: hepatocyte CLint at 1 μM (µL/min/1e6 cells)
Expressed in µL/min/1e6 cells, but write only the number.

Request: Can you share its hepatocyte CLint at 1 μM? I mean this molecule: CN1c2ccccc2C(NCCCCOCC(=O)O)c2ccc(Cl)cc2S1(=O)=O (stereo not shown)
Response: 0.3

----------
Experiment summary: PPB (compound bound to proteins)
Particulars: plasma
Assay metric: fraction unbound
Output spec: single numeric token, no unit.

Request: Report fraction unbound for CN1c2ccccc2C(NCCCCOCC(=O)O)c2ccc(Cl)cc2S1(=O)=O (stereo not shown) please.
Response: 0.18
